Consider the following compounds; for each one, report its Percent Effect.
test system: Trypanosoma cruzi; experiment: Trypanosoma cruzi phosphomannomutase and mannose-1-phosphate guanylyltransferase assay; assay type: functional; design: scale not given: direction of the effect not stated beside the values; settings: 10 µM
Number in %, nothing else.

Exercise: Provide the reported Percent Effect (system: Trypanosoma cruzi) for c1cnc(-c2nc(CN3CCCC(Cn4cncn4)C3)cs2)nc1 (centres undefined)
Key: -4.81

Exercise: For Trypanosoma cruzi, give the measured Percent Effect of the entry O=C(c1cnco1)N1CCCC(Cc2cccc3ncccc23)C1 (centres undefined)
Key: 7.51

Exercise: System Trypanosoma cruzi. Read-out Percent Effect. Item CCc1ccc(C(=O)Nc2ccc(CC3CC(=O)NC3=O)cc2)cc1 (centres undefined) . Report value.
Key: 1.76

Exercise: Please report the measured Percent Effect for CN(C(=O)Cn1nc(-c2cccs2)ccc1=O)C1CCS(=O)(=O)C1 (centres undefined) tested on Trypanosoma cruzi.
Key: -7.3

Exercise: Please respond with reported Percent Effect (system Trypanosoma cruzi) for `COc1ccc(Br)c(C(=O)N2CCC(c3n[nH]c(C4CC4)n3)CC2)c1` .
Key: 0.513

Exercise: Name the recorded Percent Effect of CCS(=O)(=O)N1CCC2(CCC2NC(=O)c2ccn(C)c2)CC1 (centres undefined) , assay system Trypanosoma cruzi.
Key: 3.62

Exercise: Under Trypanosoma cruzi: report Percent Effect of `O=C(NCc1ccccn1)c1nnn(-c2ccc(Br)cc2)n1` .
Key: 1.68

Exercise: Look up Trypanosoma cruzi data: Percent Effect of `CN(C)C(=O)c1cccc(NC(=O)N(CCO)Cc2ccsc2)c1` , then report it.
Key: 3.79

Exercise: Provide Percent Effect, system Trypanosoma cruzi, entry `Cc1c(I)cccc1C(=O)NCC1(CO)CC1`
Key: 7.14

Exercise: Report value: Percent Effect, system: Trypanosoma cruzi, compound: `COCCN(Cc1ccc(F)cc1Cl)C(=O)c1ccncc1`
Key: 0.486

Exercise: // fetch Percent Effect; item: O=C(CS(=O)(=O)CC1CCCCC1)NC1CCCCNC1=O (centres undefined) ; system: Trypanosoma cruzi
Key: 4.49

Exercise: // fetch Percent Effect for `COc1cc(C)nc(N2CCN(C(=O)c3ccc[nH]3)CC2)n1` ; system: Trypanosoma cruzi
Key: 3.68

Exercise: GET Percent Effect where system = Trypanosoma cruzi and item = `COCCNS(=O)(=O)c1cccc2c1CN(C(=O)c1ccccc1)CC2`
Key: -1.65

Exercise: Report measured Percent Effect on Trypanosoma cruzi; entry: `COc1ccc(CN(C)Cc2nc3c(cnn3C)c(=O)[nH]2)cc1OC`
Key: -3.18

Exercise: Would you please give the reported Percent Effect of CN(C)c1ncccc1CNC(=O)N1CCCC1c1ccsc1 (centres undefined) with Trypanosoma cruzi?
Key: -2.43

Exercise: Report Percent Effect under test system Trypanosoma cruzi for `CCCn1nc(C2CCNCC2)n(Cc2ccccc2)c1=O` .
Key: 7.34

Exercise: Write Percent Effect of CCc1nccn1C1CCCN(C(=O)c2ccc3[nH]cnc3c2)C1 (centres undefined) ; system used: Trypanosoma cruzi
Key: 5.36

Exercise: Find the measured Percent Effect of CCc1ncc(CNC2CC(=O)N(CCc3cccc(Cl)c3)C2)cn1 (centres undefined) with Trypanosoma cruzi as test system.
Key: 7.54

Exercise: Please look at `Cn1ccnc1CN1CCC2(CC1)CN(CC1CC1)C(=O)CO2` and tell me its recorded Percent Effect on Trypanosoma cruzi.
Key: -0.296

Exercise: Recall the reported Percent Effect of `Cc1ncsc1C(=O)Nc1cccc(OCC(F)F)n1` on Trypanosoma cruzi and write it down.
Key: -4.19

Exercise: Recall the reported Percent Effect of COc1ccc(C(C)=O)c(OCC(=O)NC(C)c2ccc(F)cc2)c1 (centres undefined) on Trypanosoma cruzi and write it down.
Key: 5.77

Exercise: Please respond with reported Percent Effect (system Trypanosoma cruzi) for `CN(Cc1ccco1)C[C@H]1OC[C@@H]2CCN(Cc3cccs3)C[C@@H]21` .
Key: -3.28

Exercise: Check Trypanosoma cruzi data and give Percent Effect for `COc1c(CNCc2ccc(N(C)C)nc2)c(C(C)C)nn1C` .
Key: 6.39

Exercise: State Percent Effect (Trypanosoma cruzi) of Cc1cc(C)c(CNC(=O)N2CCCC2c2ccccc2)c(=O)[nH]1 (centres undefined) .
Key: 3.59
